- Protocol Details: Nuclear factor erythroid 2-related factor 2/antioxidant responsive element (Nrf2/ARE) small molecule agonists: luciferase reporter gene qHTS assay in human keratinocytes (AID 1919969); further: nearly all actives have a fitted effect of over 35% in size
- Particulars: KeratinoSens HaCaT ARE-luciferase, luminescence, 24 h; series mostly up to 92.4 µM
Results filed as inconclusive are left out. Activity calls are given as the source filed them. The call rests on the fitted dose curve.
Possible outcomes: yes (active), no (inactive)

>>> group_label("COc1nc(C)nc(Cl)c1NC1=NCCN1")
"no"
>>> group_label("C=CC(=O)NC(C)(C)C")
"no"
>>> group_label("c1cc(CN2CCCCC2)cc(OCCCNc2nc3ccccc3s2)c1")
"no"
>>> group_label("CC1CC(OC(=O)C(O)c2ccccc2)CC(C)(C)N1C (stereo not drawn)")
"no"
>>> group_label("COc1cc(Cl)c(OC)cc1N")
"no"
>>> group_label("C[C@H](NC(CCc1ccccc1)C(=O)O)C(=O)N1CCC[C@H]1C(=O)O (stereo partly drawn)")
"no"
>>> group_label("C=C(C)C(=O)OCCOCCOC(=O)C(=C)C")
"no"
>>> group_label("CCC(=O)OCCc1ccccc1")
"no"
>>> group_label("C=CC(=C)CCC=C(C)C")
"yes"
>>> group_label("CN(C)CCOCCO")
"no"
>>> group_label("FC1(F)C(F)(F)C(F)(F)C2(F)C(F)(F)C(F)(F)C(F)(F)C(F)(F)C2(F)C1(F)F (stereo not drawn)")
"no"
>>> group_label("CNC(C)=O")
"no"
>>> group_label("CC1=NN(c2ccc(S(=O)(=O)O)cc2)C(=O)C1N=Nc1ccccc1 (stereo not drawn)")
"no"
>>> group_label("C=CCOCC(O)CCl (stereo not drawn)")
"no"
>>> group_label("CCC(C)(C)OC")
"no"
>>> group_label("O=C(Cl)c1cccc([N+](=O)[O-])c1")
"no"
>>> group_label("NCCc1ccn[nH]1")
"no"
>>> group_label("CN(C)C(=O)COC(=O)Cc1ccc(OC(=O)c2ccc(N=C(N)N)cc2)cc1")
"no"
>>> group_label("CCCCCCCOC(=O)c1ccc(O)cc1")
"no"
>>> group_label("CC/C=C\\CCCCCCCCCCOC(C)=O")
"no"
>>> group_label("NC(=O)c1cc[n+](CC2=C(C(=O)[O-])N3C(=O)[C@@H](NC(=O)Cc4cccs4)[C@H]3SC2)cc1")
"no"
>>> group_label("COC1CCC=CO1 (stereo not drawn)")
"no"
>>> group_label("CC(=O)c1ccc([N+](=O)[O-])cc1")
"no"
>>> group_label("CC(C)COC(=O)COc1ccc(Cl)cc1Cl")
"no"
>>> group_label("COP(=O)(O)OP(=O)(O)OC")
"yes"
>>> group_label("CN1CCC(=C2c3ccccc3CCc3cccnc32)CC1")
"no"
>>> group_label("COc1cccc(N(C)C(=S)Oc2ccc3c(c2)CCCC3)n1")
"no"
>>> group_label("CC[C@H](C)C(=O)O[C@H]1C[C@H](O)C=C2C=C[C@H](C)[C@H](CC[C@@H](O)C[C@@H](O)CC(=O)O)[C@H]21")
"no"
>>> group_label("Cc1cc2nc3ccc(=[N+](C)C)cc-3sc2cc1N")
"yes"
>>> group_label("O=C(O)Cc1cc(I)c(Oc2cc(I)c(O)c(I)c2)c(I)c1")
"yes"
>>> group_label("C=C(C)C(=O)OCc1ccccc1")
"no"
>>> group_label("CNCCCC1c2ccccc2C=Cc2ccccc21")
"no"
>>> group_label("CN(C)[C@@H](CCOc1cccc2ccccc12)c1ccccc1")
"no"
>>> group_label("C=C1CC[C@H]2C[C@@H]1C2(C)C")
"no"
>>> group_label("CC(=O)/C(C)=C/C1C(C)=CCCC1(C)C (stereo not drawn)")
"no"
>>> group_label("CSCC[C@H](NC(=O)[C@H](Cc1c[nH]c2ccccc12)NC(=O)CCNC(=O)OC(C)(C)C)C(=O)N[C@@H](CC(=O)O)C(=O)N[C@@H](Cc1ccccc1)C(N)=O")
"no"
>>> group_label("O=S(=O)(O)c1cc(I)c(O)c2ncccc12")
"no"
>>> group_label("Cc1ccc(N)cc1S(=O)(=O)O")
"no"
>>> group_label("CCCCCCOc1ccc(O)cc1")
"yes"
>>> group_label("CCCc1ccc(OCC(=O)N2CCN(C(=O)COc3ccc(CCC)cc3OC)CC2)c(OC)c1")
"no"
>>> group_label("CC[C@@]1(O)C(=O)OCc2c1cc1n(c2=O)Cc2cc3c(CN(C)C)c(O)ccc3nc2-1")
"no"
>>> group_label("CCNCCO")
"no"
>>> group_label("N#CCCN(CCO)CCO")
"no"
>>> group_label("CCCCC(CC)COS(=O)(=O)O (stereo not drawn)")
"no"
>>> group_label("Nc1ccc(O)c(N)c1")
"no"
>>> group_label("C/C(C=O)=C\\c1ccccc1")
"no"
>>> group_label("CCCCCCCCCCCCCCCS(=O)(=O)Oc1ccccc1")
"no"
>>> group_label("CN1CCN(c2ccccc2/C=C2\\SCCN(c3ccc(Cl)c(Cl)c3)C2=O)CC1")
"no"
>>> group_label("COC(=O)c1cc(Cl)ccc1[N+](=O)[O-]")
"no"
>>> group_label("Cc1ccc(C(=O)C(C)CN2CCCCC2)cc1 (stereo not drawn)")
"no"
>>> group_label("CN1CCC[C@@H]1c1cccnc1")
"no"
>>> group_label("CCCCOC(=O)CCCCC(=O)OCCCC")
"no"
>>> group_label("COc1cc2nc(N(C)CCCNC(=O)C3CCCO3)nc(N)c2cc1OC (stereo not drawn)")
"no"

Sourced from PubChem BioAssay (Tox21)
